Attribution: patent US20200407433A1

- systemUnderTest: T1, human Calcitonin Gene-Related Peptide (CGRP) (human, not fully specified)
- T1 peptide: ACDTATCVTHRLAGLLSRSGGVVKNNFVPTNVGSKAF
- assayMethodText: cell-based or functional assay
measure: SK-N-MC IC50 (pM)
Please reply with the bare figure in pM and do not write the unit itself.

// below: answered binders
query: What does the record list as SK-N-MC IC50 (pM) for murine mAb 30B8G9B11 (antibody, mouse IgG2a, V domains shown, Murine IgG2a, kappa; also called A3; Murine A3) VH: EVQLQQSGPELVKPGASVKISCKASGYTFTDYYMNWVKQSHGKSLEWIGDVNPNNGGTHYNQKFKGKATLTVDKSSSTAYMELRSLTSEDSAVYYCASITIVPVYFDFWGQGTTLTVSS VL: DIVMTQSQKFMSTSVGDRVSVTCKASQNVGPNVAWYRQKPGQSPKALIYSASYRYSGVPDRFTGSGSGTDFTLTISNVQSEDLADYICQQYNYYPYTFGGGTKLEIK ?
result: 152

query: What does the record list as SK-N-MC IC50 (pM) for REMD 128.1 (antibody, human IgG4 S228P, kappa, V domains shown, Humanized full-length IgG (IgG4 constant region, kappa); also called IgG 11 (H3/L3); 11 (H3/L3)) VH: QVQLVQSGAEVVKPGASVKVSCKASGYTFTDYYMNWVKQAPGQGLEWIGDVNPNNGGTHYNQKFKGRVTLTVDTSISTAYMELSRLRSDDTAVYYCASITIVPVYFDFWGQGTLVTVSS VL: DIQLTQSPSFLSTSVGDRVTITCKASQNVGPNVAWYRQKPGKSPKALIYSASYRYSGVPSRFSGSGSGTEFTLTISSLQPEDFATYICQQYNYYPYTFGQGTKLEIKR ?
result: 38.9

Then there is this binder:
query: What does the record list as SK-N-MC IC50 (pM) for REMD 128.2 (antibody, human IgG4 S228P, kappa, V domains shown, Humanized full-length IgG (IgG4 constant region, kappa); also called IgG 15 (H4/L3); 15 (H4/L3)) VH: QVQLVQSGAEVVKPGASVKISCKASGYTFTDYYMNWVKQAPGQGLEWIGDVNPNNGGTHYNQKFKGRATLTVDTSISTAYMELSRLRSDDTAVYYCASITIVPVYFDFWGQGTLLTVSS VL: DIQLTQSPSFLSTSVGDRVTITCKASQNVGPNVAWYRQKPGKSPKALIYSASYRYSGVPSRFSGSGSGTEFTLTISSLQPEDFATYICQQYNYYPYTFGQGTKLEIKR ?
result: 60.4
